Biological target: PAD4 enzyme (Homo sapiens (Human), UniProt Q9UM07)
Sequence (Q9UM07 whole entry): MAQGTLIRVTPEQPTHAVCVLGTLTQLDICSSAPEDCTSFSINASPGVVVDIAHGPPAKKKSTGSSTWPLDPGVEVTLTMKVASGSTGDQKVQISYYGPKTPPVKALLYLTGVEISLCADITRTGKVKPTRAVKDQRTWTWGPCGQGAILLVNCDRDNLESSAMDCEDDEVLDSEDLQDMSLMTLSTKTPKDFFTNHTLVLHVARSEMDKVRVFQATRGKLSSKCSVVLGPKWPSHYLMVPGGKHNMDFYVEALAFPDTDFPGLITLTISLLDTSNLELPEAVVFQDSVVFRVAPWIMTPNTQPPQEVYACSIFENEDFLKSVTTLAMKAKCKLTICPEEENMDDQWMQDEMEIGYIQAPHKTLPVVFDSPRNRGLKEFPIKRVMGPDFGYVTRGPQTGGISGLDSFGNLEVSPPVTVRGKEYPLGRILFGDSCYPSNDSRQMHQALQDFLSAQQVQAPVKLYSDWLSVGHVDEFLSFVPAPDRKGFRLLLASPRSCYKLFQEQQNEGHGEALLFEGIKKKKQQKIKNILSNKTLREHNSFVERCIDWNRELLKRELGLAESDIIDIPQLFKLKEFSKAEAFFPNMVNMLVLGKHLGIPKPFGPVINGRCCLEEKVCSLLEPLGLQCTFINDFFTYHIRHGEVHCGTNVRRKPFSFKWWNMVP
Experiment: Ammonia Release Biochemical Assay (citrullination detected via ammonia release)
Conditions: PAD4 120 nM, substrate BAEE, 60-min preincubation, read-out: NH3 release
Where a name gives a salt, the structure may show the parent alone.
measured_parameter: IC50

{"molecule": "COCCn1c(-c2nc3cc(C(=O)N4CCC[C@@H](N)C4)cc4c3n2CCO4)cc2ccccc21 [Example 20]", "measured_parameter": "IC50", "endpoint_result": "≤ 1 µM"}
{"molecule": "N[C@@H]1CCCN(C(=O)c2cc3c4c(c2)nc(-c2cc5cccc(Cl)c5n2CC(F)F)n4CCO3)C1 [Example 56]", "measured_parameter": "IC50", "endpoint_result": "≤ 1 µM"}
{"molecule": "N[C@@H]1CCCN(C(=O)c2cc3c4c(c2)nc(-c2cc5ccc(CO)cc5n2CC2CC2)n4CCO3)C1 [Example 61]", "measured_parameter": "IC50", "endpoint_result": "≤ 1 µM"}
{"molecule": "N[C@@H]1CCCN(C(=O)c2cc3c4c(c2)nc(-c2cc5ccccc5n2Cc2cccnc2)n4CCO3)C1 [Example 16]", "measured_parameter": "IC50", "endpoint_result": "≤ 1 µM"}
{"molecule": "N[C@@H]1CCCN(C(=O)c2cc3c4c(c2)nc(-c2cc5ccccc5n2Cc2ccccc2)n4CCO3)C1 [Example 18]", "measured_parameter": "IC50", "endpoint_result": "≤ 1 µM"}
{"molecule": "N[C@@H]1CCCN(C(=O)c2cc3c4c(c2)nc(-c2cc5ccccc5n2Cc2ccc(Cl)cc2)n4CCO3)C1 [Example 13]", "measured_parameter": "IC50", "endpoint_result": "≤ 1 µM"}
{"molecule": "N[C@@H]1CCCN(C(=O)c2cc3c4c(c2)nc(-c2cc5ccccc5n2Cc2ccccc2F)n4CCN3)C1 [Example 70]", "measured_parameter": "IC50", "endpoint_result": "≤ 1 µM"}
{"molecule": "N[C@@H]1CCCN(C(=O)c2cc3c4c(c2)nc(-c2cc5ccccc5n2Cc2ccc(CO)cc2)n4CCO3)C1 [Example 37, trifluoroacetic acid salt]", "measured_parameter": "IC50", "endpoint_result": "≤ 1 µM"}
{"molecule": "N[C@@H]1CCCN(C(=S)c2cc3c4c(c2)nc(-c2cc5ccccc5n2CC2CC2)n4CCN3)C1 [Example 86]", "measured_parameter": "IC50", "endpoint_result": "≤ 1 µM"}
{"molecule": "CCn1c(-c2nc3cc(C(=O)N4CCC[C@@H](N)C4)cc4c3n2CCO4)cc2ccccc21 [Example 3]", "measured_parameter": "IC50", "endpoint_result": "1 to 10 µM"}
{"molecule": "N[C@@H]1CCN(C(=O)c2cc3c4c(c2)nc(-c2cc5ccccc5n2CC2CC2)n4CCO3)C1 [Example 2]", "measured_parameter": "IC50", "endpoint_result": "1 to 10 µM"}
{"molecule": "N[C@@H]1CCCN(C(=O)c2cc3c4c(c2)nc(-c2cc5c(F)cccc5n2CC2CC2)n4CCN3)C1 [Example 80]", "measured_parameter": "IC50", "endpoint_result": "1 to 10 µM"}
{"molecule": "N[C@@H]1CCCN(C(=O)c2cc3c4c(c2)nc(-c2cc5ccc(F)cc5n2CC2CC2)n4CCN3)C1 [Example 65]", "measured_parameter": "IC50", "endpoint_result": "≤ 1 µM"}
{"molecule": "N[C@@H]1CCCN(C(=O)c2cc3c4c(c2)nc(-c2cc5ccc(F)cc5n2Cc2ccc(F)cc2)n4CCO3)C1 [Example 49]", "measured_parameter": "IC50", "endpoint_result": "≤ 1 µM"}
{"molecule": "CC(C)Cn1c(-c2nc3cc(C(=O)N4CCC[C@@H](N)C4)cc4c3n2CCO4)cc2cccc(Cl)c21 [Example 55]", "measured_parameter": "IC50", "endpoint_result": "≤ 1 µM"}
